Target: T1, ARHGAP21, Q5T5U3
T1 sequence (Q5T5U3 45-169, limits assumed, looked up): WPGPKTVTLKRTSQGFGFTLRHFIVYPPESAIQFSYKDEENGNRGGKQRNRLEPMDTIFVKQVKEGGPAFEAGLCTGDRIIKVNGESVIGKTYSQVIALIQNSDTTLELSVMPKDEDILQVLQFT
Assay: holdup assay
Design: key: below the threshold = too weak to quantify, mostly under pKd 3.1 to 4
Conditions: plain residues with an end cap or a label only (N-terminal biotin on a linker: ahx)
Documented pKd across a set of binders

BINDER: VNENQKEYFF [CNTNAP4, Q9C0A0]
pKd: 3.91
--
BINDER: PKMKLNETSF [SHKBP1, Q8TBC3]
pKd: 3.5
--
BINDER: KEYDDELTFF [USH1C, Q9Y6N9]
pKd: 3.87
--
BINDER: HSATSVHTSV [MTMR1, Q13613]
pKd: 3.49

FYI, the data here is from paper PMC9482650.
